Values were extracted from ChEMBL document CHEMBL3108757.

Tested on: MCF7
Procedure Details: Cytostatic activity against human MCF7 cells after 4 days by coulter counter analysis
Condition Details: MCF7, 96 h
Under this convention, Condition met denotes IC50 strictly below 8 nM and Condition not met denotes IC50 at or above 8 nM.

Completed entries (count: 7):
>>> group_label("CCCC(CCC)C(=O)Nc1ccn([C@@H]2O[C@H](CO)[C@@H](O)C2(F)F)c(=O)n1")
"Condition not met"
>>> group_label("C=CCCCCCCCCCNc1ccn([C@@H]2O[C@H](CO)[C@@H](O)C2(F)F)c(=O)n1")
"Condition not met"
>>> group_label("O=c1nc(NCCCCCCCCCCCF)ccn1[C@@H]1O[C@H](CO)[C@@H](O)C1(F)F")
"Condition not met"
>>> group_label("O=C(CCCCCCCCCCF)Nc1ccn([C@@H]2O[C@H](CO)[C@@H](O)C2(F)F)c(=O)n1")
"Condition met"
>>> group_label("C=CCCCCCCCCC(=O)Nc1ccn([C@@H]2O[C@H](CO)[C@@H](O)C2(F)F)c(=O)n1")
"Condition met"
>>> group_label("O=c1nc(NCCCCCCCCCCCO)ccn1[C@@H]1O[C@H](CO)[C@@H](O)C1(F)F")
"Condition not met"
>>> group_label("CCCCCCCCCCC(=O)Nc1ccn([C@@H]2O[C@H](CO)[C@@H](O)C2(F)F)c(=O)n1")
"Condition met"

Shifting focus to the compound that follows.
Determine whether this compound shows IC50 lower than 8 nM (ties excluded): Nc1ccn([C@@H]2O[C@H](CO)[C@@H](O)C2(F)F)c(=O)n1 Condition met
